Reference source: PubChem BioAssay

Field: z-score. Provide a value for each of the compounds that follow.
Experiment: modulators of S6 phosphorylation in cells, primary screen, cell-based, A549, cytoblot, luminescence, serum-stimulated (AID 1158);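 also: serum-stimulated A549 lung adenocarcinoma cells; signal is phosphorylated S6 detected by cytoblot immunostaining with HRP secondary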
Conditions: A549 phospho-S6 cytoblot, 5 h, higher = more signal

The measured z-score associated with COCCOC(=O)N1C(=O)[C@@]2(c3cc(C#CCNC(N)=O)ccc31)[C@H](C(=O)Nc1nc3ccccc3s1)[C@H]1C(=O)O[C@H](c3ccccc3)[C@H](c3ccccc3)N1[C@@H]2c1ccc(O)cc1 reads 0.637

The measured z-score associated with Cc1ccc(S[C@]2(C(=O)NC(C)C)CC(=O)N(Cc3ccccc3)[C@@H]2c2ccc(CO)cc2I)cc1 reads -0.35

The measured z-score associated with COc1ccc(C(=O)Nc2ccc(CN3C(=O)[C@]4(O[C@H](CC(=O)N(CCO)Cc5ccccc5)[C@@H]([Si](C)(C)c5ccc(OC)cc5)[C@@H]4C)c4ccccc43)cc2)cc1 reads 0.383

###

Field: z-score. Provide a value for each of the compounds that follow.
Experiment: basal HepG2 mitochondrial membrane potential changes, profiling panel, cell-based, JC-1 fluorescence, 24 h, 100 nL compound (AID 1167); also: test concentration not given here
Details: higher = more signal
API doc: respond with a numeric literal and nothing else, no unit.

The measured z-score associated with C=CCN1C(=O)[C@]2(O[C@H](CCO)[C@@H]([Si](C)(C)c3ccc(OC)cc3)[C@@H]2C)c2cc(N3C(=O)c4ccccc4Oc4ccccc43)ccc21 reads -2.08

The measured z-score associated with COc1ccc(CCNC(=O)[C@@]2(c3ccc([N+](=O)[O-])cc3)CC(=O)N(C3CCCCC3)[C@@H]2c2ccc(CO)cc2I)cc1 reads 1.31

The measured z-score associated with COC(=O)[C@@]1(Cc2ccc(F)cc2)[C@H]2c3cc(C(=O)N(C)C)n(Cc4ccsc4Br)c3C[C@H]2CN1C(=O)c1ccccc1 reads 2.64

The measured z-score associated with COCCOC(=O)N1C(=O)[C@@]2(c3cc(C#CCCO)ccc31)[C@H](C(=O)N1CCN(c3ncccn3)CC1)[C@H]1C(=O)O[C@H](c3ccccc3)[C@H](c3ccccc3)N1[C@@H]2c1ccc(OCCO)cc1 reads -1.02

The measured z-score associated with COCCOC(=O)N1C(=O)[C@@]2(c3cc(C#CCNC(N)=O)ccc31)[C@H](C(=O)N1CCN(c3ncccn3)CC1)[C@H]1C(=O)O[C@H](c3ccccc3)[C@H](c3ccccc3)N1[C@@H]2c1ccc(O)cc1 reads 0.866

The measured z-score associated with COc1cc(Cc2cc3c(c(-c4ccccc4)n2)[Si](C(C)C)(C(C)C)OC3)cc(OC)c1OC reads -0.591

The measured z-score associated with C=C(COC)C(=O)CC[C@H](OC(C)=O)c1ccc(CO)o1 reads 0.378

The measured z-score associated with C=CCNC(=O)[C@H]1[C@@H]2C(=O)O[C@@H](c3ccccc3)[C@@H](c3ccccc3)N2[C@@H](c2ccc(O)cc2)[C@]12C(=O)Nc1ccc(C#CCC(C(=O)OC)C(=O)OC)cc12 reads -0.922

The measured z-score associated with CN(C)C(=O)[C@]1(CCS(=O)(=O)c2ccccc2)N=C(c2ccc(OCCCO)cc2)O[C@@H]1c1ccccc1CN=[N+]=[N-] reads -0.12

The measured z-score associated with COCCOC(=O)N1C(=O)[C@@]2(c3cc(C#CCNC(N)=O)ccc31)[C@H](C(=O)Nc1nc3ccccc3s1)[C@H]1C(=O)O[C@H](c3ccccc3)[C@H](c3ccccc3)N1[C@@H]2c1ccc(O)cc1 reads -3.96

The measured z-score associated with CCOC(=O)C=C1C[C@@H](c2cccc([N+](=O)[O-])c2)O[C@@H](c2cccc([N+](=O)[O-])c2)O1 reads 3.97

The measured z-score associated with O=C1OC[C@@H](c2ccccc2)n2cc(/C=C/c3ccccc3)cc21 reads -0.564

The measured z-score associated with C=C[C@@H](CO)NS(=O)(=O)c1ccc(Br)cc1 reads 0.631

The measured z-score associated with O=C(O)C1=CC[C@H]2C(=O)N(c3ccccc3)C(=O)[C@@H]12 reads -0.915
